Reported max response by item:
Experiment: qHTS RealTime-Glo MT Cell Viability Assay in HEK293 cells - 40 hour (AID 1224874); further: on the % scale 0 is the no-effect control and ±100 the full control effect; nearly all actives have a fitted effect of over 50% in size
Conditions: RealTime-Glo luminescence; active compounds read low
Records with an inconclusive call do not appear.
Give just the numeric value; % need not be written.

O=C(O)CCC(=O)OC[C@@H](NC(=O)C(Cl)Cl)[C@H](O)c1ccc([N+](=O)[O-])cc1 :: 5.1

Reported max response ( Nc1ccc(N=Nc2ccc(N)cc2)cc1 ) = -7.32

Measured max response of CC1CCC(C(C)CS)CC1S (stereo not drawn) : 10.8

Recorded max response (compound CC[C@@H](CO)NCCN[C@@H](CC)CO ): 5.04

// recorded max response for CC(C)(O)CCc1ccccc1 : -8.47

Recorded max response (compound O=C(NC(Cc1cc(=O)[nH]c2ccccc12)C(=O)O)c1ccc(Cl)cc1 (stereo not drawn) ): 3.38

Entry CC[C@H]1OC(=O)[C@H](C)[C@@H](O[C@H]2C[C@@](C)(OC)[C@@H](O)[C@H](C)O2)[C@H](C)[C@@H](O[C@@H]2O[C@H](C)C[C@H](N(C)C)[C@H]2O)[C@](C)(O)C[C@@H](C)C(=O)[C@H](C)[C@@H](O)[C@]1(C)O — recorded max response = -19.4

The recorded max response for entry CSCC[C@H](NC(=O)[C@H](Cc1c[nH]c2ccccc12)NC(=O)CCNC(=O)OC(C)(C)C)C(=O)N[C@@H](CC(=O)O)C(=O)N[C@@H](Cc1ccccc1)C(N)=O equals 3.31

The compound listed as C[C@H](CS)C(=O)N1CCC[C@H]1C(=O)O has a reported max response of 9.42

Item: CCSC(=O)N(CC)CC | max response: 0.524

Form field max response, entry CCCCCCCCCCCCCCCC(=O)OCC : 0.513

For record O=c1[nH][nH]c(=O)c2cc([N+](=O)[O-])ccc12 the listed max response is -11.6

max response reported for this compound C=C(C)c1ccccc1 : 1.05

CCN(CC)C(=O)N1CCN(C)CC1 has a reported max response of 4.18

Values from PubChem BioAssay (Tox21)
